# System: mosquito larvae
# assay_protocol: whole plant or invertebrate
# cond: concentration 10 mg/kg, 24 h
assay_readout: Mosquito larvae Mortality (%)
State just the number; it will be interpreted in %.

Example cases with answers are listed next.
molecule	target_of_assay	unit_label	Mosquito larvae Mortality (%)
COc1ccc(C=NNC(=O)[C@@H]2Cc3c([nH]c4ccccc34)[C@H](C)N2)cc1	mosquito larvae	%	35
COc1cccc(C=NNC(=O)[C@@H]2Cc3c([nH]c4ccccc34)[C@H](C)N2)c1	mosquito larvae	%	75
CCOC(=O)[C@H]1Cc2c([nH]c3ccccc23)[C@@H](C)N1	mosquito larvae	%	100
Cc1nc(/C=C/C(=O)O)cc2c1[nH]c1ccccc12	mosquito larvae	%	35

Field Mosquito larvae Mortality (%) (entry CC(=NNC(=O)[C@@H]1Cc2c([nH]c3ccccc23)[C@H](C)N1)c1ccccc1 ) reads 40

Recorded Mosquito larvae Mortality (%) (molecule C[C@@H]1N[C@H](C(=O)NN=CC(C)(C)C)Cc2c1[nH]c1ccccc21 ): 55

Reported Mosquito larvae Mortality (%) ( C[C@@H]1N[C@H](C(=O)NCCO)Cc2c1[nH]c1ccccc21 ) = 10

Item: C[C@@H]1N[C@H](C(=O)NN=Cc2ncc[nH]2)Cc2c1[nH]c1ccccc21 | Mosquito larvae Mortality (%): 85

Lab note: C[C@@H]1N[C@H](C(=O)NN=CC2CCCCC2)Cc2c1[nH]c1ccccc21 gave Mosquito larvae Mortality (%) of 100

CCCC=NNC(=O)[C@@H]1Cc2c([nH]c3ccccc23)[C@H](C)N1 yielded Mosquito larvae Mortality (%) of 35

In plain terms, C[C@@H]1N[C@H](C(=O)NN=Cc2ccc(C(C)(C)C)cc2)Cc2c1[nH]c1ccccc21 has a documented Mosquito larvae Mortality (%) of 20

The molecule listed as C[C@@H]1N[C@H](C(=O)NN=Cc2ccco2)Cc2c1[nH]c1ccccc21 shows Mosquito larvae Mortality (%) equal to 25

====

# Test system: cotton bollworms
# assay_protocol: whole plant or invertebrate
# cond: concentration 600 mg/kg
Think of 30% as a floor: if Cotton bollworm Mortality (%) stands on it or above, it is satisfied; beneath it, not satisfied.

# example entries with known answers
smiles_text	target_of_assay	answer_label
C[C@@H]1N[C@H](C(=O)NN=Cc2ccc3c(c2)OCCO3)Cc2c1[nH]c1ccccc21	cotton bollworms	not satisfied
C[C@@H]1N[C@H](C(=O)NCCO)Cc2c1[nH]c1ccccc21	cotton bollworms	not satisfied
Cc1nccc2c1[nH]c1cc(OC(=O)C(C)(C)C)ccc12	cotton bollworms	not satisfied
Cc1nnsc1C(=O)NNC(=O)[C@@H]1Cc2c([nH]c3ccccc23)[C@H](C)N1	cotton bollworms	satisfied

Data request: Check if Cotton bollworm Mortality (%) >= 30% (inclusive). Item: C[C@@H]1N[C@H](C(=O)NN=C2CCCCC2)Cc2c1[nH]c1ccccc21
Data returned: not satisfied

Data request: Assess whether reported Cotton bollworm Mortality (%) for CCOC(=O)[C@@H]1Cc2c([nH]c3ccccc23)[C@H](CC)N1 sits at 30% or higher.
Data returned: not satisfied

Data request: I'd appreciate it if you could say whether C[C@@H]1N[C@H](C(=O)NN=Cc2ccc[nH]2)Cc2c1[nH]c1ccccc21 has Cotton bollworm Mortality (%) at least equal to 30%.
Data returned: satisfied

Data request: Could you tell me if the measured Cotton bollworm Mortality (%) of CC(=NNC(=O)[C@@H]1Cc2c([nH]c3ccccc23)[C@H](C)N1)C(C)(C)C reaches 30% or more?
Data returned: satisfied

Data request: // inclusive: Cotton bollworm Mortality (%) at least 30%? input: O=C(O)/C=C/c1cc2c([nH]c3ccccc32)c(-c2cccs2)n1
Data returned: not satisfied

Data request: API: above_or_equal(metric=Cotton bollworm Mortality (%), cutoff=30%) for item C[C@@H]1N[C@H](C(=O)NNC(=O)c2ccncc2)Cc2c1[nH]c1ccccc21
Data returned: satisfied

Data request: Tell me whether Cotton bollworm Mortality (%) is at least 30% here: C[C@@H]1N[C@H](C(=O)NN=Cc2ccc(Cl)cc2Cl)Cc2c1[nH]c1ccccc21
Data returned: satisfied

Data request: Please tell me: is the compound C[C@@H]1N[C@H](C(=O)NN=CC2CCCCC2)Cc2c1[nH]c1ccccc21 at or over 30% in terms of Cotton bollworm Mortality (%)?
Data returned: not satisfied
